growth inhibition: recorded values
Assay: NCI Yeast Anticancer Drug Screen. Data for the bub3 strain (AID 167)
Conditions: S. cerevisiae bub3 mutant strain, at 50.0 µM, hits give high values
Compounds without any hit were thinned out: in the full panel of roughly 79,000, 15% have a hit.
Just the number please, in %, no unit attached.

Worked cases, answers included:
INSERT INTO measurements (compound, unit_name, numeric_value) VALUES
  ('CCOC(=O)c1ccc(NC(=O)c2ccc(Cl)cc2Cl)cc1', '%', 36.6),
  ('Fc1cccc(Cl)c1CSc1n[nH]c(C(F)(F)F)n1', '%', 11.1),
  ('O=[N+]([O-])c1ccccc1Oc1ccccc1', '%', -14.7),
  ('ClCCOc1ccc2ccccc2c1', '%', 0.5),
  ('c1ccc(/N=C2\c3ccccc3CN2c2ccccn2)nc1', '%', 9);

Give its growth inhibition value. Item: c1ccc2c(c1)CC1c3ccccc3CC21 (stereo not given)
0.75

Give its growth inhibition value. Item: `Nc1ncnc2scnc12`
-3.25

Give its growth inhibition value. Item: `Clc1c(Cl)c2ccccc2c2ccccc12`
32.5

Give its growth inhibition value. Item: `COC(=O)Nc1nc2ccc(SC)cc2c(=O)[nH]1`
-17.8

Give its growth inhibition value. Item: `NNC(=O)CCSCCC(=O)NN`
-5.95

Give its growth inhibition value. Item: `OC1(c2ccc(C3(O)C(c4ccccc4)=C(c4ccccc4)C(c4ccccc4)=C3c3ccccc3)cc2)C(c2ccccc2)=C(c2ccccc2)C(c2ccccc2)=C1c1ccccc1`
-2.15

Give its growth inhibition value. Item: Cc1cn(C2CC(N(C)O)C(CO)O2)c(=O)[nH]c1=O (stereo not given)
-12.3

Give its growth inhibition value. Item: `CCN(CC)CCOC(=O)c1ccc(Cl)c(Cl)c1`
-6.6

Give its growth inhibition value. Item: `CCOC(=O)c1sc(SC)nc1NC(=O)c1ccc(OC)cc1`
2.1

Give its growth inhibition value. Item: `CC(C)(C)NC(=O)NC(C)(C)C`
20.9

Give its growth inhibition value. Item: COC(=O)c1ccccc1C1CN=NC12Cc1cc(C)ccc1C2=O (stereo not given)
-3.5

Give its growth inhibition value. Item: CC1COC(C(C)c2ccccc2)O1 (stereo not given)
-29.9

Give its growth inhibition value. Item: CC(=O)C(N=Nc1ccc(S(=O)(=O)NC2NCCC(C)N2)cc1)C(=O)Nc1ccccc1C (stereo not given)
0.7

Give its growth inhibition value. Item: `CC1(C)N=C(N)NC(Nc2ccccc2)=N1`
-10.8

Give its growth inhibition value. Item: `O=C(Cn1c2c(c3ccccc31)CCCC2)N1CCCC1`
7.05

Give its growth inhibition value. Item: `CC1(C)CCCC(C)(C)C1=NO`
5.75

Give its growth inhibition value. Item: `COC1=CCC=C(C(C)(C)C)C1`
-12.2

Give its growth inhibition value. Item: C=C1C(=O)OC2C1CCC(C)=C1C(=O)C=C(C)C12 (stereo not given)
-13.9

Give its growth inhibition value. Item: CSc1c(S(C)=O)[nH]c2cc(Br)cc(Br)c12 (stereo not given)
89.4

Give its growth inhibition value. Item: CC(C)c1ccc(OCC2CCCO2)cc1 (stereo not given)
28.9

Give its growth inhibition value. Item: `CC1=Nc2c(C#N)ncn2N=C(C)C1`
28.8

Give its growth inhibition value. Item: `CCN1CCCN(CC)C1=O`
-0.45

Give its growth inhibition value. Item: `O=C(COc1ccccc1[N+](=O)[O-])Nc1cccnc1`
-3.25

Give its growth inhibition value. Item: `CCCCCCCCCCCC(=O)OCCSC#N`
-0.2

Give its growth inhibition value. Item: COc1ccc2c(c1)C13CCCC(C)(C(=O)NC1)C3CC2 (stereo not given)
2.35
